Provide the recorded Jurkat Cell Binding (FOI) for the entries that follow.
- Target Or System: T1, human CD3 expressed on cells (human, UniProt P07766 23-207; P04234 22-171; P09693 23-182)
- T1 construct: whole, on cells; CD3 complex on Jurkat cells and on human primary T cells
- T1 sequence (P07766 23-207, chain 1 of 3): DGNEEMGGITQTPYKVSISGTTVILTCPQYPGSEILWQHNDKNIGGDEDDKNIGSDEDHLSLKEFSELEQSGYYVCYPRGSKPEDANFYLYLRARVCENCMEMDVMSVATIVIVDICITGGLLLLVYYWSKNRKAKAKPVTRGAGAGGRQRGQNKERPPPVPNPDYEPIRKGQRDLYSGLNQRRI
- T1 sequence (P04234 22-171, chain 2 of 3): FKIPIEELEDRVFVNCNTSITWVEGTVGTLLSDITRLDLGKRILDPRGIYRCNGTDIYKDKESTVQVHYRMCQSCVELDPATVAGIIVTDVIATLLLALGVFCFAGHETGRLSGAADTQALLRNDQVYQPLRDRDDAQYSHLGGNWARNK
- T1 sequence (P09693 23-182, chain 3 of 3): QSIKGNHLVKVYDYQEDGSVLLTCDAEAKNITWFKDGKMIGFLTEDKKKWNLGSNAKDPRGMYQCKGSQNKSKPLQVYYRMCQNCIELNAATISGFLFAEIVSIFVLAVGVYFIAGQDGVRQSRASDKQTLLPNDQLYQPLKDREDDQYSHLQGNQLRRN
- Assay Remarks: flow cytometry, 25 nM
Give just the number in FOI; leave the unit off.

input: # lookup: Jurkat Cell Binding (FOI) of mAb 78 (antibody, V domains shown) VH: EVQLVESGGGLVQPGGSLRLSCAASGFTFSSYWMSWVRQAPGKGLEWVANIKQDGSEKYYVDSVKGRFTISRDNAKNSLYLQMNSLRAEDTAVYYCARDNSPSFYWYFDLWGRGTLVTVSS VL: DIQMTQSPSTLSASVGDRVTITCRASQSLSRWLAWYQQKPGKAPKLLIYKASSLESGVPSRFSGSGSGTEFTLTISSLQPDDFATYYCQQYYTYSRTFGQGTKVEIK
output: 104

input: Param item: mAb 68 (antibody, V domains shown) VH: EVQLVDSGGGLVQPGGSLRLSCSGSGFTFSSYWMSWVRQAPGKGLEWVANIKQDGSQKYYVDSVKGRFTISRDNVKNSLYLQMNSLRVEDTAVYYCARDESSSWYWYFDLWGRGTLVTVSS VL: DIQMTQSPSTLSASVGDRVTLTCRASQNIVKWLAWYQQKPGKAPKLLIYKASSLESGVPSWFSGSGSGTEFTLTINSLQPDDFATYYCQQYYTYSRTFGQGTKVEIK
output: 113

input: Same question for mAb 145 (antibody, V domains shown) VH: QVQLVQSGAEVKKPGASVKVSCKASGYTFTNYYIHWVRQAPGQGLDWMGIINPSGGITGYAQKFQGRVTMTRDTSTTTVYMELSSLRSDDTAVYYCARGVRGNYYYYYMDVWGKGTTVTVSS VL: EIVLTQSPDFQSVTPKEKVTITCRASQSIGSKLHWYQQKPDQSPKLLIKFASQSFSGVPSRFSGSGSGTDFNLTINSLEPEDAATFYCHQSSGLPYTFGQGTKLEIK please.
output: 191
